From: paper PMC12040169

Test Name: in vitro
Cond: human, hela cells, % viability
Consider the following compounds; for each one, report its viability at 28.5 h, 10 µM.
Supply the numeric figure in %, leaving out any unit text.

Q: Given COc1ccc(OCC(=O)N2CCN(S(=O)(=O)c3ccccc3[N+](=O)[O-])CC2)cc1 [CBK264213] , state its recorded viability at 28.5 h, 10 µM.
A: 93.5

Q: Given CN1CN=C2SC3(COC(c4cccc(Br)c4)OC3)C(=O)N2C1 (centres unmarked) [CBK263700] , state its recorded viability at 28.5 h, 10 µM.
A: 93.1

Q: Given CCNC(=O)NC(=O)C1CCN(CCc2ccc(O)c(OC)c2)CC1 [CBK035184] , state its recorded viability at 28.5 h, 10 µM.
A: 102

Q: Given CO[C@H]1CC[C@H](C(=O)N2C3CCC2CC(O)(c2ccco2)C3)CC1 (some centres unmarked) [CBK284107] , state its recorded viability at 28.5 h, 10 µM.
A: 96.7

Q: Given O=C(O)CNS(=O)(=O)c1cc(Br)c(Cl)s1 [CBK034455] , state its recorded viability at 28.5 h, 10 µM.
A: 114

Q: Given CCN(CC)C(=O)C1CCCN(C(=O)Nc2cccnc2)C1 (centres unmarked) [CBK156157] , state its recorded viability at 28.5 h, 10 µM.
A: 96.8

Q: Given N#Cc1c(CN2CCCC(c3noc(C4CC4)n3)C2)cn2ccccc12 (centres unmarked) [CBK305332] , state its recorded viability at 28.5 h, 10 µM.
A: 98.7

Q: Given C[C@H](c1ccccc1)n1c(=O)[nH]c2ncc(-c3cccc(/C=C/C(=O)O)c3)nc21 [CBK064983] , state its recorded viability at 28.5 h, 10 µM.
A: 83.4

----------
Test Name: in vitro
Cond: human, hela cells, % viability
Consider the following molecules; for each one, report its viability at 28.5 h, 10 µM.

Q: Given Nc1nc(SCCc2ccccc2)nc2sc3c(c12)CCCC3 [CBK263445] , state its recorded viability at 28.5 h, 10 µM.
A: 94.9%

Q: Given Cc1nnc(SCC(=O)Nc2nnc(C(C)C)s2)[nH]c1=O [CBK022107] , state its recorded viability at 28.5 h, 10 µM.
A: 87%

Q: Given CCC(CO)Nc1nccnc1-c1cccs1 (stereo not drawn) [CBK036800] , state its recorded viability at 28.5 h, 10 µM.
A: 98.3%

Q: Given COc1ccc(-c2nc(C3CCN(C(=O)NC(C)(C)C)CC3)n3ccccc23)cc1 [CBK047080] , state its recorded viability at 28.5 h, 10 µM.
A: 97.4%

Q: Given Cc1nc2ccc(Br)cc2c(=O)n1Cc1cccs1 [CBK085890] , state its recorded viability at 28.5 h, 10 µM.
A: 89.7%

Q: Given COCCN(CCOC)Cc1c(C)nc2c(C)c(C)ccc2c1O [CBK265031] , state its recorded viability at 28.5 h, 10 µM.
A: 102%

Q: Given CCOC(=O)c1cc(C(C)C)sc1NC(=O)C1C2C=CC(C2)C1C(=O)O (stereo not drawn) [CBK265417] , state its recorded viability at 28.5 h, 10 µM.
A: 95.4%

Q: Given N#Cc1c(O)nsc1Nc1ccc(Cl)cc1 [CBK009446] , state its recorded viability at 28.5 h, 10 µM.
A: 94.9%

Q: Given O=C(/C=C/c1cccc2ccccc12)N1CCCCCC1 [CBK264092] , state its recorded viability at 28.5 h, 10 µM.
A: 111%
